Data credit: the Immune Epitope Database (IEDB)

biological target: HLA-B*15:17; test: IEDB peptide-MHC binding, purified MHC/competitive/fluorescence; filed as Kd, often an IC50 or EC50 that approximates it; bounds were set here for any values at or beyond the usual limits of such assays; conditions: source organism: Vaccinia virus
pKd: −log10 of the molar value.
reported-metric: pKd

q: Which pKd is reported for this sequence? `LLLLISLVY`
a: ≤ 4.70

----------
The entries below are paired with their reported pKd.
target: HLA-A*02:01; assay: IEDB peptide-MHC binding, purified MHC/competitive/fluorescence; filed as Kd, often an IC50 or EC50 that approximates it; bounds were set here for any values at or beyond the usual limits of such assays; settings: source organism: Salmonella enterica subsp. enterica serovar Typhi
The quantity pKd is defined as the negative base-10 logarithm of the molar concentration.

chain_sequence=TQFAGVVTV reported_metric=pKd reported_measurement=9.30

Turning now to a further record.
q: Which pKd is reported for this sequence? `MTMLTRWKI`
a: 6.65

----------
target: HLA-A*02:01; test: IEDB peptide-MHC binding, purified MHC/competitive/fluorescence; filed as Kd, often an IC50 or EC50 that approximates it; bounds were set here for any values at or beyond the usual limits of such assays; conditions: source organism: Francisella tularensis subsp. tularensis FSC198
reported-metric: Kd

q: Which Kd is reported for this sequence? `IYTVIYYIF`
a: ≥ 20 µM

----------
biological target: HLA-B*07:02; assay: IEDB peptide-MHC binding, purified MHC/direct/fluorescence; filed as Kd, often an IC50 or EC50 that approximates it; bounds were set here for any values at or beyond the usual limits of such assays; conditions: source organism: Pseudomonas putida
reported-metric: pKd
The quantity pKd is defined as the negative base-10 logarithm of the molar concentration.

q: Which pKd is reported for this sequence? `VMTEGRHAV`
a: 6.48

----------
target: HLA-A*02:03; experiment: IEDB peptide-MHC binding, purified MHC/direct/fluorescence; filed as Kd, often an IC50 or EC50 that approximates it; bounds were set here for any values at or beyond the usual limits of such assays; conditions: source organism: Araucaria virus
reported-metric: Kd

q: Which Kd is reported for this sequence? `AFMATNKAY`
a: ≥ 20 µM

----------
biological target: HLA-C*08:02; test: IEDB peptide-MHC binding, purified MHC/direct/fluorescence; filed as Kd, often an IC50 or EC50 that approximates it; bounds were set here for any values at or beyond the usual limits of such assays; conditions: source organism: Francisella tularensis subsp. tularensis WY96-3418
reported-metric: Kd

q: Which Kd is reported for this sequence? `YLYPWSLGL`
a: ≥ 20 µM

----------
target: HLA-A*02:17; assay: IEDB peptide-MHC binding, purified MHC/competitive/radioactivity; filed as Kd, often an IC50 or EC50 that approximates it; bounds were set here for any values at or beyond the usual limits of such assays; settings: source organism: Dengue virus 1 Singapore/S275/1990
The entries below are paired with their reported pKd.
The quantity pKd is defined as the negative base-10 logarithm of the molar concentration.

q: Which pKd is reported for this sequence? `ILLMLVTPSM`
a: 5.95

q: Which pKd is reported for this sequence? `RLITANPIV`
a: 6.92

----------
target: HLA-A*30:02; test: IEDB peptide-MHC binding, purified MHC/competitive/radioactivity; filed as Kd, often an IC50 or EC50 that approximates it; bounds were set here for any values at or beyond the usual limits of such assays; conditions: source organism: SARS coronavirus Tor2
reported-metric: Kd (nM)
Value expressed in nM; do not type the unit.

Below: 2 sequences and their reported Kd.
chain_sequence=LIDLQELGKY reported_metric=Kd measurement_units=nM reported_measurement=38.9
chain_sequence=VWTLMNVITL reported_metric=Kd measurement_units=nM reported_measurement=19400

q: Which Kd is reported for this sequence? `SSQGSEYDY`
a: 68.9

q: Which Kd is reported for this sequence? `TCDGNTFTY`
a: 107

q: Which Kd is reported for this sequence? `CTLSEQLDY`
a: 27.6
